Assign IC50 to each entry below.
studySystem: Fatty acid synthase (Homo sapiens)
Sequence (P49327 whole entry): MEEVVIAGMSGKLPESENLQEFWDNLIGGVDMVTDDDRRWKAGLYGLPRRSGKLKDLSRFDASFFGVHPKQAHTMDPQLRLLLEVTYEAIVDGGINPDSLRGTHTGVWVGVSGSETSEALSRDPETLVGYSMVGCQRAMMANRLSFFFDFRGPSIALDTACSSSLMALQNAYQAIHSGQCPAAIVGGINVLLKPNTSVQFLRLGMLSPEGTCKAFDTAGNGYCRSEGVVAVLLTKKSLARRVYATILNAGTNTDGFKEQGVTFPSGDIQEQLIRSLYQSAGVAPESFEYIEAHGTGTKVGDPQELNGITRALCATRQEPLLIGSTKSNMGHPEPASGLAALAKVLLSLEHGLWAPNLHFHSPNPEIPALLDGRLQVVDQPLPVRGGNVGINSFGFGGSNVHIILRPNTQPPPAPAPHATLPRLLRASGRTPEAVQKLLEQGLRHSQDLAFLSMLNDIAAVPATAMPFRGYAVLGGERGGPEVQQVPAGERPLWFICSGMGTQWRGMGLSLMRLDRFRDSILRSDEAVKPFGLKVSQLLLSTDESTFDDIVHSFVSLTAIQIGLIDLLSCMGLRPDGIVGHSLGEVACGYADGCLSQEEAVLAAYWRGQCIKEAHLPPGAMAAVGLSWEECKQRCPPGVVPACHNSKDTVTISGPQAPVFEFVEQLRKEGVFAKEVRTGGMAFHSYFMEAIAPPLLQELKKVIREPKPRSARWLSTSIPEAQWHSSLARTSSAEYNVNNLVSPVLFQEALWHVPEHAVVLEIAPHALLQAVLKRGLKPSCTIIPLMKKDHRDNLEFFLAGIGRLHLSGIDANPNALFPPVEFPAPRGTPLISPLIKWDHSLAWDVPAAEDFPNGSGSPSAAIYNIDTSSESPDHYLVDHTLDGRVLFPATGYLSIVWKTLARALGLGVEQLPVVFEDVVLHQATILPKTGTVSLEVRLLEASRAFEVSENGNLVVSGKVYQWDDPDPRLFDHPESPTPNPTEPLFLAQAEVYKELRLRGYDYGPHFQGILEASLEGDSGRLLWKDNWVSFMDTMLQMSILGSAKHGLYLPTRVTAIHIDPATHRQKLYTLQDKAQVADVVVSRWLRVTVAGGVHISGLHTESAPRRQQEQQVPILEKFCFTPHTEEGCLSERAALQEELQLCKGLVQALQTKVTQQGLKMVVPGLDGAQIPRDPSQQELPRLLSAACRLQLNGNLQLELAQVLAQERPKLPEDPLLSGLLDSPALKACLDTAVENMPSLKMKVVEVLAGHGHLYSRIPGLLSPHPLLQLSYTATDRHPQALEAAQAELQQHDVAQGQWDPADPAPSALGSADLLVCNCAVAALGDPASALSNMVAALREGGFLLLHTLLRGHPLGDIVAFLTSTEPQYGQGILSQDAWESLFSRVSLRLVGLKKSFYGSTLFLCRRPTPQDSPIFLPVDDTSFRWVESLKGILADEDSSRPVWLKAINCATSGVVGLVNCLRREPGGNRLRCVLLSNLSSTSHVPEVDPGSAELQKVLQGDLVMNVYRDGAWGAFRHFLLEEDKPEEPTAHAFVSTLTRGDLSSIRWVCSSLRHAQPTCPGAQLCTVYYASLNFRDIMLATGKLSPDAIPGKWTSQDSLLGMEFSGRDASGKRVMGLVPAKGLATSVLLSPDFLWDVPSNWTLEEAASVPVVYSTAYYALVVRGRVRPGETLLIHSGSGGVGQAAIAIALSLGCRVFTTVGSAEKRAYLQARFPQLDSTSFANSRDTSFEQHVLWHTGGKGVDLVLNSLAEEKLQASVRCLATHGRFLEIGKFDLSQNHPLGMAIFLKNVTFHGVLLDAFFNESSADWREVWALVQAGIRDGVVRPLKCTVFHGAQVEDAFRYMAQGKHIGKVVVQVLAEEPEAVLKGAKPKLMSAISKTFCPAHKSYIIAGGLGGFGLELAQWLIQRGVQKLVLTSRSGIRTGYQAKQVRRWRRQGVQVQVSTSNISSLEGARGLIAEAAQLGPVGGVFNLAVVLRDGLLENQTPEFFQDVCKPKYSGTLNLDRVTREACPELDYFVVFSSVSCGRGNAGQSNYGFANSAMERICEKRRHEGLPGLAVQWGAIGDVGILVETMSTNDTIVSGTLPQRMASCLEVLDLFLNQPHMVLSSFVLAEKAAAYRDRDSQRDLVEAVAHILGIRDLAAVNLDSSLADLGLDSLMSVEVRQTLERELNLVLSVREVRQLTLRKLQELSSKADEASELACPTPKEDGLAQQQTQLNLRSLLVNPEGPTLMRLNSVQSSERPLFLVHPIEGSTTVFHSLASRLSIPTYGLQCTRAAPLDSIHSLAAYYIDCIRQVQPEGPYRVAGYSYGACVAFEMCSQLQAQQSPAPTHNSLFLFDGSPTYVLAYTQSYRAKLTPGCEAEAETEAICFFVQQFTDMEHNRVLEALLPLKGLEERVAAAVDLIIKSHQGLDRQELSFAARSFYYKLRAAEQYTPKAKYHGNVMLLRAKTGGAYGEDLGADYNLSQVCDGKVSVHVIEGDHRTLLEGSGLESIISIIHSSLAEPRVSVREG
testSummary: inhibition of human FAS-TE enzyme activity – biochemical, kinetic fluorescence intensity, dose response (AID 624326);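 further: rate of fluorescence rise from hydrolysis of a fluorogenic O-methyl fluorescein ester substrate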
Type: functional
Activity calls are given as the source filed them. No stated cut-off is given here; in the data, active = IC50 of 20 µM or less and inactive = more.

// field: IC50; key: `Cc1cccc(N2CCN(C(=O)COc3ccc4ccc(=O)oc4c3)CC2)c1C` ; value = 5.23 µM (active)

The reported IC50 of the compound `COC(=O)c1cc(C(=O)Nc2nnc(CC(C)(C)C)s2)cc([N+](=O)[O-])c1` was 11.2 µM (active)

// field: IC50; key: `COc1ccc(/C=C(\NC(=O)c2ccc([N+](=O)[O-])cc2)C(=O)N2CCOCC2)cc1` ; value = 0.848 µM (active)

IC50 measured on `CCc1cc2c(=O)oc(-c3ccccc3F)nc2s1` = 1.62 µM (active)
